meta.source: patent US20170190671A1

# Test system: kochia (Kochia scoparia)
# measurement-protocol: Test A postemergence
# Type: in vivo
# particulars: Bassia scoparia, post-emergence, 240 h, 31 g ai/ha, 0 to 100 scale, read-out: Plant response rating, Kochia
Label condition met when pest or weed control at 31 g/ha is strictly below 50%; otherwise label condition not met.

molecule: N#Cc1cccc(Oc2ncc(Cl)cn2)c1Oc1ncc(C(F)(F)F)cn1 [Compound 38]
label-class: condition not met

Prompt: Answer whether the molecule N#Cc1cccc(Oc2ncc(Cl)cn2)c1Oc1cccc(Cl)c1 [Compound 37] has pest or weed control at 31 g/ha strictly less than 50%
Response: condition met

Prompt: Answer whether the molecule N#Cc1cccc(Oc2ncc(Cl)cn2)c1Oc1cccnc1 [Compound 8] has pest or weed control at 31 g/ha strictly less than 50%
Response: condition met

Prompt: Answer whether the molecule N#Cc1cccc(Oc2ncc(Br)cn2)c1Oc1ccc(Cl)cn1 [Compound 11] has pest or weed control at 31 g/ha strictly less than 50%
Response: condition met

Prompt: Answer whether the molecule Fc1ccc(F)c(Oc2ncc(Br)cn2)c1Oc1ncc(Br)cn1 [Compound 31] has pest or weed control at 31 g/ha strictly less than 50%
Response: condition met
